Origin of measurements: patent US9802904B2

# TARGET ENTITY: USP1/UAF1 (Homo sapiens (Human), UniProt O94782)
# Sequence (O94782 whole entry): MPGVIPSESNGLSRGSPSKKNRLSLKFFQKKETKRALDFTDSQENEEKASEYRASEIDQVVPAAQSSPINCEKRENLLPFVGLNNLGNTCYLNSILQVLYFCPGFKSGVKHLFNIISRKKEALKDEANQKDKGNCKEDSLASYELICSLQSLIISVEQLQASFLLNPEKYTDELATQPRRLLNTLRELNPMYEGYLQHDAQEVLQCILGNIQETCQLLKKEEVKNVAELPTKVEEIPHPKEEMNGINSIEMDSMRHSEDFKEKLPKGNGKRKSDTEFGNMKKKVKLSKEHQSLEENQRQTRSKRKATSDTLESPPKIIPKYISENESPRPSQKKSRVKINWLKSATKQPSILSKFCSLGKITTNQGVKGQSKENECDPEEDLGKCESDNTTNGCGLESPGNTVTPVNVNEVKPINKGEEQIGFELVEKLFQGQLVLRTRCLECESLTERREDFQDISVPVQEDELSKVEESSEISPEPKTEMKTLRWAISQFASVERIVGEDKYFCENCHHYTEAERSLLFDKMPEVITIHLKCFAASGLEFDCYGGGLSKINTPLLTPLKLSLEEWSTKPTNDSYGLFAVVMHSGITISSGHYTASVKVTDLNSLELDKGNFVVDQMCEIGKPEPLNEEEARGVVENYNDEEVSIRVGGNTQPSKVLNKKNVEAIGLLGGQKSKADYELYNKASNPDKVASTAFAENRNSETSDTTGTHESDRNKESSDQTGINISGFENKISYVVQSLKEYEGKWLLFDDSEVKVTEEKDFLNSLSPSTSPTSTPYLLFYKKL
# Sequence (Q8TAF3 whole entry partner): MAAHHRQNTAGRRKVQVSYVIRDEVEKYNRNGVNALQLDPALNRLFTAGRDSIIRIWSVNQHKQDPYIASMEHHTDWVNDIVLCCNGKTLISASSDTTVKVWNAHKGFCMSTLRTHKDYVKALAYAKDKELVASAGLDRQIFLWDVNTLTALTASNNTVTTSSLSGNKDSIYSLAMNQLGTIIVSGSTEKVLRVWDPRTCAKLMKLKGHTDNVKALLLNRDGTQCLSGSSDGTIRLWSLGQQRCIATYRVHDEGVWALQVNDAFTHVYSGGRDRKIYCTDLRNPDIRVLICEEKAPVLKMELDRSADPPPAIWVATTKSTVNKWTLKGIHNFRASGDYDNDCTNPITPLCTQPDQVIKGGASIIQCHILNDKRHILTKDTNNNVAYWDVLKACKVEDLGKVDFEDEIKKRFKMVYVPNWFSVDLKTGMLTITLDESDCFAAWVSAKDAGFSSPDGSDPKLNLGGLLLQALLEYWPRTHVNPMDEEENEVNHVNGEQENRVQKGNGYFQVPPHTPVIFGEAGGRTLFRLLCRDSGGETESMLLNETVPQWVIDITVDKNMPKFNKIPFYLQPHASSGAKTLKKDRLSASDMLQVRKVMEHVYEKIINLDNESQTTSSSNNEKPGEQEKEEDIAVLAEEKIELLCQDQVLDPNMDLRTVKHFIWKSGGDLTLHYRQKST
# PROTOCOL: qHTS assay for USP1/UAF1 activity (fluorometric, ubiquitin-rhodamine110)
# Format: biochemical
# CONDITION INFO: USP1/UAF1 inhibition, Table 1 of Example 8
pIC50: −log10 of the molar value.
ASSAY READOUT: pIC50

>  <STRUCTURE AS SMILES>
Fc1ccc(CNc2cccc3nc(-c4ccccc4C(F)(F)F)ncc23)cc1

>  <pIC50>
5.62

$$$$
>  <STRUCTURE AS SMILES>
FC(F)(F)c1ccccc1-c1ncc2c(NCc3ccc(-c4ccccc4)cc3)cccc2n1

>  <pIC50>
5.52

$$$$
>  <STRUCTURE AS SMILES>
FC(F)(F)c1ccccc1-c1ncc2c(NCc3ccc(-c4ccncc4)cc3)cccc2n1

>  <pIC50>
6.32

$$$$
>  <STRUCTURE AS SMILES>
FC(F)(F)c1ccccc1-c1ncc2c(NCc3ccc(-c4ccc(Cl)cc4)cc3)cccc2n1

>  <pIC50>
5.66

$$$$
>  <STRUCTURE AS SMILES>
FC(F)(F)c1ccccc1-c1ncc2c(NCc3ccc(C4CCCCC4)cc3)cccc2n1

>  <pIC50>
5.24

$$$$
>  <STRUCTURE AS SMILES>
FC(F)(F)c1ccccc1-c1ncc2c(NCc3ccccc3)cccc2n1

>  <pIC50>
5.62

$$$$

a. FC(F)(F)c1ccccc1-c1ncc2c(NCc3ccc4c(c3)OCO4)cccc2n1
b. N#Cc1ccc(CNc2cccc3nc(-c4ccccc4C(F)(F)F)ncc23)cc1
Lower value of pIC50 belongs to which: a or b ? Please indicate the selected item by its label.
a

P. FC(F)(F)c1cc(-c2ccc(CNc3cccc4nc(-c5ccccc5C(F)(F)F)ncc34)cc2)ccn1
Q. FC(F)(F)c1ccccc1-c1ncc2c(NCc3ccc(-c4ccc(Cl)c(Cl)c4)cc3)cccc2n1
Lower value of pIC50 belongs to which: P or Q ? Please indicate the selected item by its label.
P
(P: 5.37, Q: 5.85)

1. FC(F)(F)c1ccccc1-c1ncc2c(NCc3ccc(Cl)c(Cl)c3)cccc2n1
2. FC(F)(F)c1ccc(CNc2cccc3nc(-c4ccccc4C(F)(F)F)ncc23)cc1
Of the two listed items, which has the higher pIC50? First: 1 Second: 2 Please indicate the selected item by its label.
2

====

# TARGET ENTITY: USP1/UAF1 (Homo sapiens (Human), UniProt O94782)
# PROTOCOL: qHTS assay for USP1/UAF1 activity (fluorometric, ubiquitin-rhodamine110)
# Assay type: biochemical
# CONDITION INFO: USP1/UAF1 inhibition, Table 3
ASSAY READOUT: IC50 (nM)

Below, each entry is followed by its recorded IC50 result.
>  <COMPOUND>
CC(C)c1ccccc1C1=NCCC(NCc2ccc(-c3ccccc3)cc2)=N1 [Compound 58]

>  <TARGET ENTITY>
USP1/UAF1 (Homo sapiens (Human), UniProt O94782)

>  <IC50 (nM)>
120

$$$$
>  <COMPOUND>
Cc1nc(-c2ccccc2C(C)C)nc(NCc2ccc(-c3ccccc3)cc2)c1C [Compound 66]

>  <TARGET ENTITY>
USP1/UAF1 (Homo sapiens (Human), UniProt O94782)

>  <IC50 (nM)>
140

$$$$

P. Cc1cc(NCc2ccc(-c3ccccc3)cc2)nc(-c2ccccc2C(C)C)n1 [Compound 65]
Q. CC(C)c1ccccc1-c1nc2c(c(NCc3ccc(-c4ccccc4)cc3)n1)CCC2 [Compound 53]
Lower value of IC50 belongs to which: P or Q ? Please indicate the selected item by its label.
P
